# Test system: ATH-8 cell line
# ASSAY METHOD TEXT: In vitro evaluation for the anti-viral activity Drug concentrations required to inhibit the cytopathic effect of HIV-1on ATH8 cells
# Assay type: functional
# CONDITION INFO: Homo sapiens, read-out: ED50 (the source's name)
pEC50: −log10 of the molar value.
ENDPOINT: pEC50

# input Kindly state the measured pEC50 obtained for Nc1nc(S)c2ncn(C3CCC(CO)O3)c2n1 (stereo unspecified) with ATH-8 cell line.
# output < 3.70

====

# System: ATH-8 cell line
# ASSAY METHOD TEXT: Concentration required to inhibit the cytopathic effect of HIV-1 on ATH8 cells
# Assay type: functional, Human immunodeficiency virus 1
# CONDITION INFO: Homo sapiens, read-out: ED50 (the source's name)
Exercise: state measured pEC50 for each of the molecules provided.
// scale note: pEC50 = -log10(conc_M); give the bare number

# input Requested field: pEC50. Item: Nc1nc(I)c2ncn(C3CCC(CO)O3)c2n1 (stereo not given)
# output 5.10

# input What pEC50 value was documented for this molecule, OCC1CCC(n2cnc3c(I)ncnc32)O1 (stereo not given) ?
# output 4.34

# input Look up pEC50: Nc1nc(Br)c2ncn(C3CCC(CO)O3)c2n1 (stereo not given)
# output 5.16
